- experimentalSystem: T1, Rb^P E539D (human, UniProt P06400 380-788, E539D)
- T1 construct: also called variant 24
- T1 sequence (looked up): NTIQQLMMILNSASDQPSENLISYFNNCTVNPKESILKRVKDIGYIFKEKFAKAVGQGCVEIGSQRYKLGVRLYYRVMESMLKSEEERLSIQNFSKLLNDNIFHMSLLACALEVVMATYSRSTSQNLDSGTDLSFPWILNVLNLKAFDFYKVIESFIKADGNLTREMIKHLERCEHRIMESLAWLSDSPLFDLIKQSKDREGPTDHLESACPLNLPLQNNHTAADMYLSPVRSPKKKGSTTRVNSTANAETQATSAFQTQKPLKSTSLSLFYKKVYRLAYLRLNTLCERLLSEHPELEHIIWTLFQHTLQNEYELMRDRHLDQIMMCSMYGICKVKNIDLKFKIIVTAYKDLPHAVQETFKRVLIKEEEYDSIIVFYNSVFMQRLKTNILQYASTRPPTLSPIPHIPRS
- experimentSummary: fluorescence polarisation; 25 °C; unlabeled Rb^P titrated against 1.5 nM TMR-E2F1^TD or 7.5 nM TMR-E7^LxCxE; 25 mM Tris pH 8.0, 200 mM NaCl, 1 mM DTT, 0.1% Tween-20; 2 min incubation; quadratic fit; apparent Kd for the variants, Kd for WT
- conditionsUsed: both partners purified
No end group written: not given here. TMR = tetramethyl rhodamine dye
Please go through the items and note down their pKd.
Formally, pKd is defined as -log10 of the concentration c, with c in mol/L.

Q: So what's the measured pKd for this one? {TMR}-GEGIRDLFDCDFGDLTPLD (also called E2F^TD; source: synthetic peptide, bought: GenScript) [TMR-E2F1^TD, peptide of the E2F1 transactivation domain]
A: 7.26

Q: Quick check: pKd of DLYCYEQLN (also: TMR label, position not given here, source: synthetic peptide, bought: GenScript) [TMR-E7^LxCxE, LxCxE peptide of the E7 oncoprotein from HPV] ?
A: 8.15
